Overview of recorded Hepatotoxicity (steatosis) for various compounds
- ASSAY CONDITIONS: human
Where a SMILES comes first, the peptide text is derived from it. Bridges are numbered along the chain shown (N, C = ends). [ ]: non-standard residue; d: D form.
MEASURED QUANTITY: Hepatotoxicity (steatosis)

COMPOUND: COc1cc(C(=O)NCc2ccc(OCCN(C)C)cc2)cc(OC)c1OC [TRIMETHOBENZAMIDE]
QUANTITATIVE RESULT: 0

COMPOUND: c1ccc([C@H]2CN3CCSC3=N2)cc1
QUANTITATIVE RESULT: 6

COMPOUND: NC(=O)NO [HYDROXYUREA]
QUANTITATIVE RESULT: 0

COMPOUND: CC(C(=O)Nc1cc(-c2ccccc2)nn1-c1ccccc1)N(C)C (configuration not stated)
QUANTITATIVE RESULT: 0

COMPOUND: O=C(Nc1cccc2c(=O)cc(-c3nnn[nH]3)oc12)c1ccc(OCCCCc2ccccc2)cc1
QUANTITATIVE RESULT: 0

COMPOUND: CCN1CCCC1CNC(=O)c1cc(S(N)(=O)=O)ccc1OC (configuration not stated) [SULPIRIDE]
QUANTITATIVE RESULT: 0

COMPOUND: C[C@]12CC[C@@H]3c4ccc(O)cc4CC[C@H]3[C@@H]1CC[C@@H]2O
QUANTITATIVE RESULT: 0

COMPOUND: NCCNC(=O)c1ccc(Cl)cn1 [LAZABEMIDE]
QUANTITATIVE RESULT: 0

COMPOUND: CC(=O)Oc1cc(C(C)C)c(OCCN(C)C)cc1C
QUANTITATIVE RESULT: 0

COMPOUND: CCN(CC)C(=O)N1CCN(C)CC1
QUANTITATIVE RESULT: 0

COMPOUND: CC(C)[C@@H]1NC(=O)[C@H](CCCCN)NC(=O)[C@@H](Cc2c[nH]c3ccccc23)NC(=O)[C@H](Cc2ccc(O)cc2)NC(=O)[C@@H](NC(=O)[C@H](N)Cc2ccccc2)CSSC[C@@H](C(=O)N[C@@H](Cc2c[nH]c3ccccc23)C(N)=O)NC1=O [VAPREOTIDE] (H-[dF]CY[dW]KVCW-NH2; disulfide 2-7)
QUANTITATIVE RESULT: 0

COMPOUND: C[C@]12C/C(=C/O)C(=O)C[C@@H]1CC[C@@H]1[C@@H]2CC[C@@]2(C)[C@H]1CC[C@]2(C)O
QUANTITATIVE RESULT: 0

COMPOUND: CO[C@H]1Cc2c(O)cc(O)cc2O[C@@H]1c1ccc(O)c(O)c1
QUANTITATIVE RESULT: 0

COMPOUND: CC(=O)c1ccc2c(c1)N(CC(C)N(C)C)c1ccccc1S2 (configuration not stated)
QUANTITATIVE RESULT: 0

COMPOUND: Oc1ccc(Cl)cc1Cc1cc(Cl)ccc1O
QUANTITATIVE RESULT: 0

COMPOUND: CC(=O)OCC(=O)[C@@]1(O)CC[C@H]2[C@@H]3CCC4=CC(=O)C=C[C@]4(C)[C@@]3(F)[C@@H](O)C[C@@]21C [ISOFLUPREDONE ACETATE]
QUANTITATIVE RESULT: 0

COMPOUND: CC(=O)OCC1=C(C(=O)O)N2C(=O)[C@@H](NC(=O)CC#N)[C@H]2SC1
QUANTITATIVE RESULT: 0

###

# Hepatotoxicity (moderate) annotations
- ASSAY CONDITIONS: human, serum
MEASURED QUANTITY: Hepatotoxicity (moderate)

MOLECULE: CN1C(CCl)Nc2cc(Cl)c(S(N)(=O)=O)cc2S1(=O)=O (centres undefined) [METHYCLOTHIAZIDE]
MEASURED QUANTITY: Hepatotoxicity (moderate)
QUANTITATIVE RESULT: 1

MOLECULE: CO[C@@]1(NC(=O)C2SC(=C(C(N)=O)C(=O)O)S2)C(=O)N2C(C(=O)O)=C(CSc3nnnn3C)CS[C@@H]21 (some centres undefined)
MEASURED QUANTITY: Hepatotoxicity (moderate)
QUANTITATIVE RESULT: 10

MOLECULE: O=C(CCOCCOCCOCCOCCC(=O)Nc1c(I)cc(I)c(C(=O)O)c1I)Nc1c(I)cc(I)c(C(=O)O)c1I
MEASURED QUANTITY: Hepatotoxicity (moderate)
QUANTITATIVE RESULT: 1

MOLECULE: CC(O)CCC(=O)c1ccoc1 (centres undefined)
MEASURED QUANTITY: Hepatotoxicity (moderate)
QUANTITATIVE RESULT: 0

MOLECULE: CCCCN1CCCCC1C(=O)Nc1c(C)cccc1C (centres undefined)
MEASURED QUANTITY: Hepatotoxicity (moderate)
QUANTITATIVE RESULT: 0

MOLECULE: CC(C)[C@H](N)C(=O)OCCOCn1cnc2c(=O)[nH]c(N)nc21
MEASURED QUANTITY: Hepatotoxicity (moderate)
QUANTITATIVE RESULT: 2

MOLECULE: NC(=O)c1ncn([C@@H]2O[C@H](CO)[C@@H](O)[C@H]2O)n1
MEASURED QUANTITY: Hepatotoxicity (moderate)
QUANTITATIVE RESULT: 3

MOLECULE: Cl[C@H]1[C@H](Cl)[C@@H](Cl)[C@@H](Cl)[C@H](Cl)[C@H]1Cl
MEASURED QUANTITY: Hepatotoxicity (moderate)
QUANTITATIVE RESULT: 0

MOLECULE: CS(=O)(=O)c1ccc(C2=C(c3ccccc3)C(=O)OC2)cc1
MEASURED QUANTITY: Hepatotoxicity (moderate)
QUANTITATIVE RESULT: 1

###

- ASSAY NOTES: Highest frequency of moderate liver toxicity observed during clinical trials, expressed as a percentage. [column '% BIOL' in source]
- ASSAY CONDITIONS: human
MEASURED QUANTITY: Hepatotoxicity (moderate) (%)

MOLECULE: C(=C\c1ccccc1)/CN1CCN(C(c2ccccc2)c2ccccc2)CC1
MEASURED QUANTITY: Hepatotoxicity (moderate)
QUANTITATIVE RESULT: 0

MOLECULE: CO[C@@H]1C[C@](C)(O)Cc2cc3c(c(O)c21)C(=O)c1c(O)cc2c(c1C3=O)O[C@@H]1O[C@@]2(C)[C@H](O)[C@@H](N(C)C)[C@@H]1O
MEASURED QUANTITY: Hepatotoxicity (moderate)
QUANTITATIVE RESULT: 16.7

MOLECULE: COc1ccc(OC[C@H]2CN(C)CC[C@@H]2c2ccccc2)cc1
MEASURED QUANTITY: Hepatotoxicity (moderate)
QUANTITATIVE RESULT: 0

MOLECULE: CCOc1ccc2ccccc2c1C(=O)N[C@@H]1C(=O)N2[C@@H]1SC(C)(C)[C@@H]2C(=O)O
MEASURED QUANTITY: Hepatotoxicity (moderate)
QUANTITATIVE RESULT: 25

MOLECULE: COc1cc(C(=S)N2CCOCC2)cc(OC)c1OC
MEASURED QUANTITY: Hepatotoxicity (moderate)
QUANTITATIVE RESULT: 3

MOLECULE: NC(=O)c1cnccn1 [PYRAZINAMIDE]
MEASURED QUANTITY: Hepatotoxicity (moderate)
QUANTITATIVE RESULT: 36.4

MOLECULE: CCCCC(=O)N(Cc1ccc(-c2ccccc2-c2nnn[nH]2)cc1)[C@H](C(=O)O)C(C)C
MEASURED QUANTITY: Hepatotoxicity (moderate)
QUANTITATIVE RESULT: 0

MOLECULE: O=C(Cn1ccnc1[N+](=O)[O-])NCc1ccccc1
MEASURED QUANTITY: Hepatotoxicity (moderate)
QUANTITATIVE RESULT: 0

MOLECULE: Cc1cn([C@H]2C[C@H](F)[C@@H](CO)O2)c(=O)[nH]c1=O
MEASURED QUANTITY: Hepatotoxicity (moderate)
QUANTITATIVE RESULT: 0

MOLECULE: Nc1nc2ccc(OC(F)(F)F)cc2s1
MEASURED QUANTITY: Hepatotoxicity (moderate)
QUANTITATIVE RESULT: 17

MOLECULE: CCOC(=O)C(C)(C)Oc1ccc(Cl)cc1 [CLOFIBRATE]
MEASURED QUANTITY: Hepatotoxicity (moderate)
QUANTITATIVE RESULT: 19.7

MOLECULE: O=C1OCCN1/N=C/c1ccc([N+](=O)[O-])o1
MEASURED QUANTITY: Hepatotoxicity (moderate)
QUANTITATIVE RESULT: 0

MOLECULE: CNC(=O)c1cccc2c(Nc3ccc(NS(C)(=O)=O)cc3OC)c3cccc(C)c3nc12
MEASURED QUANTITY: Hepatotoxicity (moderate)
QUANTITATIVE RESULT: 17

MOLECULE: O=C1NCCN1CCN1CCC(c2cn(-c3ccc(F)cc3)c3ccc(Cl)cc23)CC1
MEASURED QUANTITY: Hepatotoxicity (moderate)
QUANTITATIVE RESULT: 1.4

MOLECULE: OCCN1CCN(CCCN2c3ccccc3Sc3ccc(C(F)(F)F)cc32)CC1
MEASURED QUANTITY: Hepatotoxicity (moderate)
QUANTITATIVE RESULT: 0

MOLECULE: COc1ccc(/C=C/C(=O)Nc2ccccc2C(=O)O)cc1OC
MEASURED QUANTITY: Hepatotoxicity (moderate)
QUANTITATIVE RESULT: 7.5

MOLECULE: CC[C@@H](CO)NC(=O)[C@@H]1C=C2c3cccc4[nH]cc(c34)C[C@H]2N(C)C1
MEASURED QUANTITY: Hepatotoxicity (moderate)
QUANTITATIVE RESULT: 0

MOLECULE: CN1C(CCl)Nc2cc(Cl)c(S(N)(=O)=O)cc2S1(=O)=O (stereo not drawn) [METHYCLOTHIAZIDE]
MEASURED QUANTITY: Hepatotoxicity (moderate)
QUANTITATIVE RESULT: 0

Ref: ChEMBL document CHEMBL3137667
